- Test Method Notes: PK and blood-brain barrier permeability in mice
- Type: in vivo
- Test Context: mouse, plasma; male ICR mice, intravenous 1 mg/kg; read-out: t½ (converted)
- Protocol: The compounds of the present disclosure were investigated for pharmacokinetic characteristics and blood-brain barrier permeability in mice. Healthy male ICR mice were randomly grouped, 6 animals per group. […] Drug contents in plasma and brain tissues at different time points were measured by an LC-MS/MS method, the brain-to-blood ratio B/P was calculated by using EXCEL software, and pharmacokinetic parameters were calculated by using DAS3.0 software.
Measured Parameter: half-life (h)
# output: bare number, implied unit h

The following molecules have reported results that may help.
[[record]]
molecule = "CC(C)C[C@@H](NC(=O)[C@@H](Cc1ccccc1)NC(=O)N(C)C(CN)c1ccccc1)C(=O)N[C@H](CCCCN)C(=O)N1CCS(=N)(=O)CC1 (stereo partly drawn) [Compound 10]"
unit_tag = "h"
value_measured = 0.82

[[record]]
molecule = "CC(C)C[C@@H](NC(=O)[C@@H](Cc1ccccc1)NC(=O)N(CCN)Cc1ccccc1)C(=O)N[C@H](CCCCN)C(=O)N1CCS(=O)(=O)CC1 [Compound 21]"
unit_tag = "h"
value_measured = 1.15


## Task // returns reported half-life for input COC(=O)NC1CCN(C(=O)[C@@H](CCCCN)NC(=O)[C@@H](CC(C)C)NC(=O)[C@@H](Cc2ccccc2)NC(=O)N(C)C(CN)c2ccccc2)CC1 (stereo partly drawn) [Compound 12]
## Result 1.42

----------
- System: ICR mice
- Test Method Notes: Sedation safety window
- Test Context: sedation side effect ED50 (autonomic activity test)/efficacy ED50 (acetic acid writhing test)
Square brackets hold non-standard residues; d marks the D form. Peptide text beside a SMILES is read from it. * marks the point of attachment. Gly(N-(2R-Ph-propyl)) = C[C@@H](CNCC(=O)O)c1ccccc1; Piperidin1yl(4-NH2,4-COOH) = NC1(C(=O)O)CCN(*)CC1; dPhLac = O=C(O)[C@H](O)Cc1ccccc1; X4 = COC(=O)NC1CCN(*)CC1
Label criterion met when Safety window is at or above 3; otherwise label criterion not met.

Sample answers from the record:
[[record]]
compound = "CC(C)C[C@@H](NC(=O)[C@@H](Cc1ccccc1)NC(=O)N(CCN)Cc1ccccc1)C(=O)N[C@H](CCCCN)C(=O)N1CCC(N)(C(=O)O)CC1 [Compound 13]"
qualitative_label = "criterion met"

[[record]]
compound = "COC(=O)C1(N)CCN(C(=O)[C@@H](CCCCN)NC(=O)[C@@H](CC(C)C)NC(=O)[C@@H](Cc2ccccc2)NC(=O)N(CCN)Cc2ccccc2)CC1 [Compound 13-2]"
qualitative_label = "criterion met"

[[record]]
compound = "CC(C)C[C@@H](NC(=O)[C@@H](Cc1ccccc1)NC(=O)C[C@@H](N)c1ccccc1)C(=O)N[C@H](CCCCN)C(=O)N1CCC(N)(C(=O)O)CC1 [Compound 4-0]"
qualitative_label = "criterion met"

[[record]]
compound = "COC(=O)NC1CCN(C(=O)[C@@H](CCCCN)NC(=O)[C@@H](CC(C)C)NC(=O)[C@@H](Cc2ccccc2)NC(=O)[C@H](O)Cc2ccccc2)CC1 [Compound 11] (H-[dPhLac][dF][dL][dK]-X4)"
qualitative_label = "criterion met"

[[record]]
compound = "CC(C)C[C@@H](NC(=O)[C@@H](Cc1ccccc1)NC(=O)N(CCN)Cc1ccccc1)C(=O)N[C@H](CCCCN)C(=O)N1CCS(=O)(=O)CC1 [Compound 21]"
qualitative_label = "criterion not met"


## Task Reported Safety window at or above 3? CC(C)C[C@@H](NC(=O)[C@@H](Cc1ccccc1)NC(=O)CNC[C@H](C)c1ccccc1)C(=O)N[C@H](CCCCN)C(=O)N1CCC(N)(C(=O)O)CC1 [Comparative Example 1B, reference compound] (H-[Gly(N-(2R-Ph-propyl))][dF][dL][dK]-{Piperidin1yl(4-NH2,4-COOH)})
## Result criterion not met

## Task Does CC(C)C[C@@H](NC(=O)[C@@H](Cc1ccccc1)NC(=O)N(Cc1ccccc1)C1CCNC1)C(=O)N[C@H](CCCCN)C(=O)N1CCC(N)(C(=O)O)CC1 (stereo partly drawn) [Compound 27] have a reported Safety window of at least 3?
## Result criterion met

## Task For this compound, is measured Safety window 3 or higher? CC(C)C[C@@H](NC(=O)[C@@H](Cc1ccccc1)NC(=O)N(CCN)Cc1ccccc1)C(=O)N[C@H](CCCCN)C(=O)N1CCC2(CC1)NC(=O)NC2=O [Compound 29]
## Result criterion met

----------
- Test Method Notes: PK and blood-brain barrier permeability in mice
- Format: in vivo
- Test Context: mouse, plasma; male ICR mice, intravenous 1 mg/kg
We begin with a simple list: items and their reported clearance.
// return numeric value only (unit: mL/min/kg, not printed)

Example results:
[[record]]
compound = "CC(C)C[C@@H](NC(=O)[C@@H](Cc1ccccc1)NC(=O)N(CCN)Cc1ccccc1)C(=O)N[C@H](CCCCN)C(=O)N1CCC(N)(C(=O)O)CC1 [Compound 13]"
value_measured = 12.3

[[record]]
compound = "CC(C)C[C@@H](NC(=O)[C@@H](Cc1ccccc1)NC(=O)N(CCN)Cc1ccccc1)C(=O)N[C@H](CCCCN)C(=O)N1CCS(=O)(=O)CC1 [Compound 21]"
value_measured = 6.33

[[record]]
compound = "CC(C)C[C@@H](NC(=O)[C@@H](Cc1ccccc1)NC(=O)[C@H](N)Cc1ccccc1)C(=O)N[C@H](CCCCN)C(=O)N1CCC(N)(C(=O)O)CC1 [CR845, reference compound]"
value_measured = 27

[[record]]
compound = "CC(C)C[C@@H](NC(=O)[C@@H](Cc1ccccc1)NC(=O)N(C)C(CN)c1ccccc1)C(=O)N[C@H](CCCCN)C(=O)N1CCS(=N)(=O)CC1 (some centres unmarked) [Compound 10]"
value_measured = 4.17

[[record]]
compound = "CC(C)C[C@@H](NC(=O)[C@@H](Cc1ccccc1)NC(=O)N(Cc1ccccc1)C1CCNC1)C(=O)N[C@H](CCCCN)C(=O)N1CCC(N)(C(=O)O)CC1 (some centres unmarked) [Compound 27]"
value_measured = 14.7

[[record]]
compound = "COC(=O)NC1CCN(C(=O)[C@@H](CCCCN)NC(=O)[C@@H](CC(C)C)NC(=O)[C@@H](Cc2ccccc2)NC(=O)N(C)C(CN)c2ccccc2)CC1 (some centres unmarked) [Compound 12]"
value_measured = 4.67


## Task Dear colleague, I am looking for the recorded clearance of the following compound: CC(C)C[C@@H](NC(=O)[C@@H](Cc1ccccc1)NC(=O)N(CCN)Cc1ccccc1)C(=O)N[C@H](CCCCN)C(=O)N1CCC2(CC1)NC(=O)NC2=O [Compound 29]
## Result 5.17

## Task Name the recorded clearance for COC(=O)C1(N)CCN(C(=O)[C@@H](CCCCN)NC(=O)[C@@H](CC(C)C)NC(=O)[C@@H](Cc2ccccc2)NC(=O)N(CCN)Cc2ccccc2)CC1 [Compound 13-2] .
## Result 10

----------
- Test Method Notes: PK and blood-brain barrier permeability in mice
- Type: in vivo
- Test Context: mouse, plasma; male ICR mice, intravenous 1 mg/kg
Measured Parameter: Vd (L/kg)
Write the number in L/kg without appending the unit.

Worked cases, answers included:
[[record]]
molecule = "CC(C)C[C@@H](NC(=O)[C@@H](Cc1ccccc1)NC(=O)N(CCN)Cc1ccccc1)C(=O)N[C@H](CCCCN)C(=O)N1CCC2(CC1)NC(=O)NC2=O [Compound 29]"
measured_parameter = "Vd"
unit_tag = "L/kg"
value_measured = 0.32

[[record]]
molecule = "CC(C)C[C@@H](NC(=O)[C@@H](Cc1ccccc1)NC(=O)N(CCN)Cc1ccccc1)C(=O)N[C@H](CCCCN)C(=O)N1CCC(N)(C(=O)O)CC1 [Compound 13]"
measured_parameter = "Vd"
unit_tag = "L/kg"
value_measured = 0.38


## Task Tell me the measured Vd of CC(C)C[C@@H](NC(=O)[C@@H](Cc1ccccc1)NC(=O)N(Cc1ccccc1)C1CCNC1)C(=O)N[C@H](CCCCN)C(=O)N1CCC(N)(C(=O)O)CC1 (stereo partly drawn) [Compound 27] , please.
## Result 0.63

----------
- Tgt: κ-opioid receptor (Kappa) (Homo sapiens (Human), UniProt P41145)
- Sequence (P41145 whole entry): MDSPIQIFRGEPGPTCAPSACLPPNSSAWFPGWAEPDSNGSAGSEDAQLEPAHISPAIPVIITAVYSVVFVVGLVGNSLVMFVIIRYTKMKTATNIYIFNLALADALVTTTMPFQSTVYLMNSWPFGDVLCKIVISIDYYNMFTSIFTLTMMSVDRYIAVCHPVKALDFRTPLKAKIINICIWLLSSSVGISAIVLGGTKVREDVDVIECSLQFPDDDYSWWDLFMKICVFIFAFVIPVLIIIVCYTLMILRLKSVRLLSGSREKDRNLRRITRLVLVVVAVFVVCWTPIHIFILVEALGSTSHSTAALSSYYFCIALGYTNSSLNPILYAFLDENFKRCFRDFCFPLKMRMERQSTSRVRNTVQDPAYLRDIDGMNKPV
- Test Method Notes: In vitro functional assay, HTRF cAMP-Gi in CHO-K1-OPRK1 cells
- Assay type: cell-based
Measured Parameter: pEC50
Notebook: values listed as pEC50 are -log10 of the concentration (mol/L).

Some solved cases for reference:
[[record]]
molecule = "CC(C)C[C@@H](NC(=O)[C@@H](Cc1ccccc1)NC(=O)N(CCN)Cc1ccccc1)C(=O)N[C@H](CCCCN)C(=O)N1CCNCC1 [Compound 40]"
value_measured = 9.89

[[record]]
molecule = "CNC(=O)NC1CCN(C(=O)[C@@H](CCCCN)NC(=O)[C@@H](CC(C)C)NC(=O)[C@@H](Cc2ccccc2)NC(=O)N(CCN)Cc2ccccc2)CC1 [Compound 17]"
value_measured = 9.52

[[record]]
molecule = "CC(C)C[C@@H](NC(=O)[C@@H](Cc1ccccc1)NC(=O)N(CCN)Cc1ccccc1)C(=O)N[C@H](CCCCN)C(=O)N1CCC2(CC1)NC(=O)NC2=O [Compound 29]"
value_measured = 10.24


## Task Query (molecule): COC(=O)N=S1(=O)CCN(C(=O)[C@@H](CCCCN)NC(=O)[C@@H](CC(C)C)NC(=O)[C@@H](Cc2ccccc2)NC(=O)[C@H](N)Cc2ccccc2)CC1 [Compound 4B] ; field requested: pEC50
## Result 9.19
